Molecular target: Inadl_9, Q8NI35
Sequence (Q8NI35 1530-1615): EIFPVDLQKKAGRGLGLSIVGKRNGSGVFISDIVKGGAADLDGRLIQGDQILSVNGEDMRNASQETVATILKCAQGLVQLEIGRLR
Assay: holdup assay
Set-up: key: below the threshold = too weak to quantify, mostly under pKd 3.1 to 4
Settings: plain residues with an end cap or a label only (N-terminal biotin on a linker: ado-ado)
readout.type: pKd

In the examples that follow, each entry is paired with its recorded pKd.
>  <binder>
RRLPGKETMA [GRIK2, Q13002]

>  <pKd>
below the threshold

$$$$
>  <binder>
VRNLPESEEL [MYOZ3, Q8TDC0]

>  <pKd>
below the threshold

$$$$
>  <binder>
IKAIVDLTGL [TRAF2, Q12933]

>  <pKd>
below the threshold

$$$$
>  <binder>
NLSIEKETKL [ASNSD1, Q9NWL6]

>  <pKd>
below the threshold

$$$$
>  <binder>
PKRSFIESNV [TANC1, Q9C0D5]

>  <pKd>
below the threshold

$$$$
>  <binder>
YRLAQESGLV [ABCC6, O95255]

>  <pKd>
below the threshold

$$$$
>  <binder>
PPYRHRNTVV [ERBB4, Q15303]

>  <pKd>
3.53

$$$$
>  <binder>
QGPVETESVV [SLC45A4, Q5BKX6]

>  <pKd>
3.75

$$$$

I have 8 binders here; please give me pKd for each one.
1. KKMPSIESDV [GRIN2A, Q12879]
2. PLSPEQPTKL [TRIM50, Q86XT4]
3. TSSMRGMDAV [RSRC2, Q7L4I2]
4. MLSKQSESAI [FLVCR1, Q9Y5Y0]
5. RRISSLESEV [GRIN2C, Q14957]
6. EVEEFPETSV [TRPV3, Q8NET8]
7. LKVPPEERLI [CRB2, Q5IJ48]
8. QSLNRMEYIV [JAG1, P78504]

below the threshold
below the threshold
below the threshold
below the threshold
below the threshold
3.93
below the threshold
3.65
